Test system: Vero E6
Assay: drug sensitivity score (DSS) for viability; higher = more toxic; extreme values may be limits of the assay
Conditions: 72 h
Give drug sensitivity score for every item shown.
Answers are plain numbers.

Example results:
Cn1cnc2c(F)c(Nc3ccc(Br)cc3F)c(C(=O)NOCCO)cc21
11.5
COc1cnc(-c2ccc(Cn3c(CC(C)(C)C(=O)O)c(SC(C)(C)C)c4cc(OC[C@@H]5Cc6ccccc6N5C(C)=O)ccc43)cc2)nc1
0

Turning now to a further compound:
In: Bench note: what drug sensitivity score did O=Cc1cn(Cc2ccc(Cl)cc2)c2ccccc12 show?
Out: 0

* * *

System: U2OS
Assay: cell viability relative to DMSO; higher = less toxic
Details: 72 h; 10 nM
Give cell viability for every item shown.
The reply should read as a number followed by its unit.

Example results:
CC(C)(C)c1ccc2cc(C#N)c(C#N)cc2c1
106%
Fc1cc(-c2cccc3ncc(-c4cnn(C5CCNCC5)c4)nc23)cc(F)c1CN1CCOCC1
101%
COc1cccc2c1C(=O)c1c(O)c3c(c(O)c1C2=O)C[C@@](O)(C(=O)CO)C[C@@H]3O[C@H]1C[C@H](N)[C@H](O[C@@H]2CCCCO2)[C@H](C)O1
99.5%

Look at each compound and report its cell viability.
1. Cc1cc(OI)c(C(C)C)cc1-c1cc(C(C)C)c(OI)cc1C [thymol-iodide]
2. CCCC(CCC)C(=O)NCC(N)=O [valrocemide]
3. C=CCc1ccc(O)c(-c2ccc(O)c(CC=C)c2)c1
4. C[C@@H]1[C@H](O)[C@@H](C)/C=C/C=C/C=C/C=C/C=C/C=C/C=C/[C@H](O[C@@H]2O[C@H](C)[C@@H](O)[C@H](N)[C@@H]2O)C[C@@H]2O[C@](O)(C[C@@H](O)C[C@@H](O)[C@H](O)CC[C@@H](O)C[C@@H](O)CC(=O)O[C@H]1C)C[C@H](O)[C@H]2C(=O)O
5. CS(=O)(=O)N1CCc2c(-c3cnc(N)nc3)nc(N3CCOCC3)nc21
6. CN1C(=O)N(c2cc(Cl)cc(Cl)c2)C(=O)[C@@]1(C)Cc1ccc(Br)cc1
7. COCC1=C(C(=O)O)N2C(=O)[C@@H](NC(=O)/C(=N\OC)c3csc(N)n3)[C@H]2SC1
8. O=C(O)C(=O)CBr [3-bromopyruvate]

Out:
["103%", "101%", "95.1%", "97%", "97.5%", "100%", "99.6%", "99.4%"]

Look at each compound and report its cell viability.
1. FC(F)(F)c1cc(NC(=S)Nc2ccc(Br)cc2-c2nnn[nH]2)cc(C(F)(F)F)c1
2. CNS(=O)(=O)CCc1ccc2[nH]cc(C3CCN(C)CC3)c2c1
3. CC(C)S(=O)(=O)NC[C@H](C)c1ccc(-c2ccc(CCNS(C)(=O)=O)cc2)cc1
4. CC=CC1=C(C(=O)O)N2C(=O)[C@@H](NC(=O)[C@H](N)c3ccc(O)cc3)[C@H]2SC1 (mixture of isomers)
5. OCc1ccccc1O

Out:
1. 104%
2. 106%
3. 102%
4. 101%
5. 95.4%

Source of measurements: the supplement of paper PMC13380429
